target-entity: Horseradish peroxidase (HRP) (Armoracia rusticana)
Sequence (P00433 31-338 limits assumed): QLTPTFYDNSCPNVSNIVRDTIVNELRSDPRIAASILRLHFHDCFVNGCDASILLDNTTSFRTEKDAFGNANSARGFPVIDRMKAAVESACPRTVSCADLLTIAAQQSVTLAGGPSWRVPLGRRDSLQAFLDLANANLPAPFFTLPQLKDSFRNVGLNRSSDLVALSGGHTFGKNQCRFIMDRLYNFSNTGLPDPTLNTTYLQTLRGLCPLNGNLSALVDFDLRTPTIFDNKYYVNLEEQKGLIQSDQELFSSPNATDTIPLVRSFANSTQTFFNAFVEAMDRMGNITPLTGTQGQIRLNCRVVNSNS
test: Kinetics of the oxidation of flavones catalyzed by HRP
Format: biochemical
measurement-name: kinetic model of oxidation by HRP

O=c1c(-c2ccc(O)cc2)coc2cc(O)ccc12 [compound 10, daidzein] : Hill kinetic model
O=c1cc(-c2ccc(O)cc2)oc2cc(O)cc(O)c12 [compound 1, apigenin] : Hill kinetic model
